Tested on: K4 kissing-loop RNA reporter
Experiment: apparent KD of K4 kissing-loop reporter; higher = weaker reporter binding
Settings: Eterna round: R107; input ligand: arginine 13.2 mM
REPORTED ENDPOINT: apparent KD of K4 kissing-loop reporter (nM)
Kindly provide the numeric value in nM only, without the unit symbol.

Worked examples, 5 sequences total:
UGAUGUUUAGUUCACCCAGUGAUGUUGGAAGGAGCGUGCGAAAGCACAGGUAGGUCGCCAACCUAAAAGUGUCUUGAUUAUCUAA [JR_Nu_ExcArginiA_Sub028]    317
UCUGCAAAGUCGGCCGCCACUCCGGGCCCUAUAAAUGGGCGCAGUGAUGUUGCGGCUAGGCCUCUGAGGACCGGGACUUCGUAGA [Somale]    52.1
AAGUCAUAGGCAGGAUAUGCAUUGUAGUAAGGCAAUAUAUACGUAUAGAGUGAUGUUUUGUACCAGGCAGAAGGGCUACAUCAGU [FMN B Excl V11 (+G)]    367
UGUCAUUGGUCGGCCGCCACUUCGGUCAAAGACCAUAAAGAGUGAUGUUCUUAAGACGAAAGUCGAAGGACCGGGACCGAUGACU [TrypBS 11 #SwitchBubble #K4Middle]    744
AAUAUAAAGCAGUGAUGUUGCUUAUGAGAAGGAGCGCACGAAAGUGCAGGUAGGUCGCUCAGCCAAGUGGACGAAAACGUCCACA [whbob_SS_Arginine_A_sa106]    92.5

query: // fetch apparent KD of K4 kissing-loop reporter; item: AGGUCACGAGGAAGGAGCGCCCUGACAGGUUGCUGCCGUGGGCAGUGAUGUUGCUCAGUCCGGCAGGUAGGUCGCCUCGUGACCU ; system: K4 kissing-loop RNA reporter
result: 174

query: // fetch apparent KD of K4 kissing-loop reporter; item: GGUGACGGCCAGGAGUGAUGUAUAGAAUAGCGAGGACCGGUACGGCCGCCACUCGUGAAGAAAAGGGAGUGAUGUUCCGUAAUGU [Kazoo] ; system: K4 kissing-loop RNA reporter
result: 122

query: // fetch apparent KD of K4 kissing-loop reporter; item: CGGAUGUAGUGAUGUUAUAUUAGAUGUAGACGAGGACCGGUACGGCCGCCACUCGAAACGGCUGCUAGCGCGUUGCGAGGUGUGC [ExTryptoA.Ck] ; system: K4 kissing-loop RNA reporter
result: 525

query: // fetch apparent KD of K4 kissing-loop reporter; item: CAGAUCACAGAGUGAUGUUCUGUGUCCGAAGGAGCGCGCUUCGGCGCAGGUAGGUCGCGGAUACAGUUGACGUACCAUCUAGACA [Arg A Ex t3c] ; system: K4 kissing-loop RNA reporter
result: 383

query: // fetch apparent KD of K4 kissing-loop reporter; item: UGAUACCAGACUGAUACCAGCCACAGAGUCAAAGACUCUGAUAAAGGAACCAGUGAUGUUGGCCCUUGGCAGCAGUCUGGUAUCU [TheoBX 24 #SwitchBubble #StaticStem] ; system: K4 kissing-loop RNA reporter
result: 113

query: // fetch apparent KD of K4 kissing-loop reporter; item: GCCUGGGCACGAAGGAGCGCCGUGACAGGUUACUGCCGUGGGCAGUGAUGUUGCUCAAUCUGGCAGGUAGGUCGCGUGCCCAGGC ; system: K4 kissing-loop RNA reporter
result: 86

query: // fetch apparent KD of K4 kissing-loop reporter; item: UUGGCAGUGAUGUUGCCAGAGCUCACCGAAGGAGCGCGUGAAAACGCAGGUAGGUCGCGGUAGCGGAGUGAUUCUCCGCGAGGGC [Same State Arginine A GF 21] ; system: K4 kissing-loop RNA reporter
result: 71.7

* * *

System: K4 kissing-loop RNA reporter
Assay: apparent KD of K4 kissing-loop reporter; higher = weaker reporter binding
Conditions: Eterna round: R107; input ligand: arginine 13.2 mM
REPORTED ENDPOINT: apparent KD of K4 kissing-loop reporter
Give the figure together with its unit, number first.

Worked examples, 2 sequences total:
AAAAUAAACCAGUGAUGUUGGUAGCCAGAUACCAGCGACGAAAGUCGCCCUUGGCAGCUGUGGACGUACAAAAUAAGUACGUCCU    232 nM
ACGUAUAUCAGAGGAUAUCGUAUUAAUAUUUUAUCUAUCUAUAUAUGCAGUGAUGUUGCAAUAAUUCGAGAAGGCUGAUUUACGA [JR_ExcFMNB_Sub010]    124 nM

query: Give the measured apparent KD of K4 kissing-loop reporter for CCCAAAAUAUGCAGUGAUGUUGCAACUGAUACCAGUAUCGAAAGAUACCCUUGGCAGCGGAAAACCGCUACGUAAUUUAAAAGGG [Ex Theophylline A K4 18]
result: 292 nM

query: Give the measured apparent KD of K4 kissing-loop reporter for UGAUAGGACAGAAGGAGCGGAGCUGGUCAAAGACCAGCAAUACGUUAAAUAGGAGUGAUGUUCCAGGUAGGUCGCUGUCCUAUCU [ArgBX 28 #SwitchBubble #StaticStem]
result: 121 nM

query: Give the measured apparent KD of K4 kissing-loop reporter for GCGCGGCUCAGUGAUGUUGAGCCUCGGAAACGAGGACCGGUACGGCCGCCACUCGUCCGCGCAGCUGAGGCAAAAGCCUCGGCAA [Omei KL Tryp A SS B v1]
result: 276 nM

query: Give the measured apparent KD of K4 kissing-loop reporter for AAUUUAUUAACUGAUACCAGACUUAAUGAAUUGUAAAUUACUAGUGAUGUUAGUGAAUCUGUCCCUUGGCAGCAGUAUUUAUUAA [JR_ExcTheophyB_Sub010]
result: 209 nM

* * *

apparent KD of MS2 coat protein reference
Tested on: MS2 coat protein
Assay: apparent KD of MS2 coat protein; designed switch direction (-1 OFF switch, 1 ON switch): -1; higher = weaker reporter binding
Conditions: input ligand: FMN 200 uM
Kindly provide the numeric value in nM only, without the unit symbol.

Worked examples, 3 sequences total:
GCGUGGGCCGCAGGAUAUGAGGCCGUGGGUUCACCCAAACACACAUGAGGAUCACCCAUGUGUCAUCAGAAGGGCGAGCCUACU [Sozasora] (Eterna round: R96, puzzle: Exclusion NG 2)    18.9
ACAUGAGGAUCACCCAUGUAAACAUAAUGGCUCAUGUAGAGUCAGGAUAUGCGUGGCGAACAAGCGCAGAAGGGACAAGACUGG [Deportation 25 - Jieux - Exclusion NG 3] (Eterna round: R96, puzzle: Exclusion NG 3)    30
CCUCAACAGUAGGAUAUCAUCAAACUAUUGUGAUGAGAAGGACUGACAUGAGGAUCACCCAUGUUAACGUGAUG [Mod of Brourd - Jieux - Exclusion 6] (Eterna round: R97, puzzle: Exclusion 6)    176

Field: next sequence
query: Give the measured apparent KD of MS2 coat protein for CACCUGAAGUCAGGAUAUCAUACAUGAGGAUCACCCAUGUAAUAAAUGAGAAUUUCGAAUGUAAUUGAGAAGGGACAAUAAGGC [Ostricism 97 - Jieux - Exclusion NG 2] (Eterna round: R96, puzzle: Exclusion NG 2)
result: 93.2

* * *

Test system: K4 kissing-loop RNA reporter
Experiment: apparent KD of K4 kissing-loop reporter; higher = weaker reporter binding
Conditions: Eterna round: R107; input ligand: FMN 200 uM
REPORTED ENDPOINT: apparent KD of K4 kissing-loop reporter (nM)
Kindly provide the numeric value in nM only, without the unit symbol.

AGAGUCACAUAAGGAUAUCCCUUGACGGGAACCAAGUGAUGUUUGGUUAGACGACCUCUUAUCACGGGAGAAGGUAUAUUUGUAU [theeternabot_sameState_KL_FMN_B_27]    724

query: // fetch apparent KD of K4 kissing-loop reporter; item: UUCGAAAGUCGAAGGAGCGCUGGCGGUCAUAGACUAUAUCUGUAGUGAUGUUACAGAUUCCAGCAGGUAGGUCGCGACAGAGACA [Arg B SS t18b] ; system: K4 kissing-loop RNA reporter
result: 124

query: // fetch apparent KD of K4 kissing-loop reporter; item: CCGCUACCCUCAGGAUAUUAAAUAUUAGUGAUGUUAGUAAACCGAUGGCGAAAGCCAUCGGUAUGUUGAGAAGGGAGGGUAGCGG [whbob_SS_FMNB__2th197] ; system: K4 kissing-loop RNA reporter
result: 403

query: // fetch apparent KD of K4 kissing-loop reporter; item: CAUACGCAUGGAGGAUAUGAGAUUUCUCAUAUUAUUUAAUAUUCUCAGUGAUGUUGAGAAUUUAACUCAGAAGGCCAUGUGUAUG [Ex FMN B 5] ; system: K4 kissing-loop RNA reporter
result: 316

query: // fetch apparent KD of K4 kissing-loop reporter; item: CUUCGAUUAACAGAUACCAGUCACUUUGGAGCCACACACAAGUGAGUGAUGUUCACUUGUGACCCUUGGCAGCUGUUAGUCGAAG [Theo B Ex t1] ; system: K4 kissing-loop RNA reporter
result: 92.8

query: // fetch apparent KD of K4 kissing-loop reporter; item: UGGAUAUAGUGAUGUUAUAUAGAGAUGGAUACCAGUUGAGAGAAUAGCCCUUGGCAGCCGAAAGAAGUAUCAUUAGAGAAGAAUG [ExTheophyl.Ak] ; system: K4 kissing-loop RNA reporter
result: 269

query: // fetch apparent KD of K4 kissing-loop reporter; item: UGCACGGGCUCGGCCGCCACUCCAGCGGGUCGCAAGGUCCGCUACUGAGUGAUGUUCGGUUGGAGGAGGACCGGGAGCCCGUGCG [#2 Exclusion - Tryptophan B Attempt #31 (HarryS)] ; system: K4 kissing-loop RNA reporter
result: 146

query: // fetch apparent KD of K4 kissing-loop reporter; item: AAGCAGUCACUCUAAGCCAUCGAAGAUGGACGAGGACCGGUACGGCCGCCACUCGGAGUGAUGUUCCGAAGACUGCAAAAUAAAA ; system: K4 kissing-loop RNA reporter
result: 379

query: // fetch apparent KD of K4 kissing-loop reporter; item: AAGCAUUGGUCUGAUACCAGUUGAUGACGAAUACGUCAACUGGAGUGAUGUUCCUAAAACAACCCUUGGCAGCAGACCGAUGCAA [MAT - Same State Theophlline B - Mod of Eli - D2] ; system: K4 kissing-loop RNA reporter
result: 761

query: // fetch apparent KD of K4 kissing-loop reporter; item: UGUCGAGUGAUGUUCGAUUUGGUGCAUGCAGAGGAUAUAGGGUGGGCUAGAAGGCUGAAAAGUGCUUCGAGUGAUGUUCGAAGUU [Exclusion FMN A GF10] ; system: K4 kissing-loop RNA reporter
result: 117

query: // fetch apparent KD of K4 kissing-loop reporter; item: UAAUAAUAAUGAUAAUAAUAAAGUGGUGGACGAGGACCGGUACGGCCGCCACUCGAAAAUGCAGUGAUGUUGUAAUACAAAUAAU [Exclusion - Tryptophan A (Freestyle 1)] ; system: K4 kissing-loop RNA reporter
result: 110

query: // fetch apparent KD of K4 kissing-loop reporter; item: AAAAUAAAGCAGUCAAUCGGAGUGAUGUUCCGAGGACCGGUACGGCCGCCACUCGAGAGUCCAAAGGACUCAUGGCGAGACUGCA [#SwitchBubble 17 #K4Early] ; system: K4 kissing-loop RNA reporter
result: 97

query: // fetch apparent KD of K4 kissing-loop reporter; item: GAGUUUCGUAAAGGAUAUUCUAGCUAAAGCCAUUAGUGAUGUUGAUGUACGGACGGAAGCCUGGCAGAAGAAGGUUAACAGGAUU [theeternabot_sameState_KL_FMN_B_24] ; system: K4 kissing-loop RNA reporter
result: 708

query: // fetch apparent KD of K4 kissing-loop reporter; item: AUUUUGGUUUAGAGUGAUGUUCCUUGUAUUCGAGGACCGGUACGGCCGCCACUCGAAUAGAAAAGAAAAGAAAUGUUUGAUUUUU [BDazzled - #7 SS Tryptophan A] ; system: K4 kissing-loop RNA reporter
result: 406

query: // fetch apparent KD of K4 kissing-loop reporter; item: UGAUACCAGACGGCCGCCACUCCCGUAAGUCAAAGACUUACGAAGAGAGUUUUCCAGUGAUGUUGGAGGACCGGGUCUGGUAUCU [FiskerMod 15 - Jieux - Exclusion - Tryptophan B] ; system: K4 kissing-loop RNA reporter
result: 186

query: // fetch apparent KD of K4 kissing-loop reporter; item: CCGCCGGUCGGAAGGAGCGCACGCCAGAGUGAUGUUCUGGCGCGGGCAUUUUGUGCCCGCGUGCAGGUAGGUCGCCGAUUCUGGC [Quxeorti] ; system: K4 kissing-loop RNA reporter
result: 602

query: // fetch apparent KD of K4 kissing-loop reporter; item: AGUAGGAAACUACAAUCCUCUCUUACUGAAGGAGCGCGUGAAAACGCAGGUAGGUCGCAGGAUUUGAGAGUGAUGUUCUCAUUAA [Ex Arginine A K4 16] ; system: K4 kissing-loop RNA reporter;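 further: bound reporter read as fluorescence of individual clusters on recovered sequencing chips by microscopy, with normalized cluster intensities fitted with a binding model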
result: 201

These measurements were taken from the supplement of paper PMC9170038.
